Test: Toxicity liver stage against HepG2, at 10uM
Type: cell-based
Set-up: test concentration 10 uM, cell line HepG2-A16-CD81EGFP
Settings: human, HepG2-A16-CD81EGFP cells; read-out: INHIBITION

compound: Cc1cncc(NC(=O)c2ccc(CN3CCCC(C(N)=O)C3)cc2)c1 (stereo not given)
cytotoxicity at 10 µM (%): 0.86

compound: COCCNC(=O)[C@H]1C[C@@H]2CCN(Cc3ccncc3)C[C@H]2O1
cytotoxicity at 10 µM (%): 2.6

compound: CC(C)NC(=O)NC[C@H]1OC[C@@H](NCc2ccncc2)[C@@H]1O
cytotoxicity at 10 µM (%): -4.07

compound: Cc1noc(C)c1CN1CC[C@H]2[C@@H]1CCC(=O)N2CC1CCOCC1
cytotoxicity at 10 µM (%): -1.38

compound: CCc1ncnc2c1CCN(Cc1ccc(OC)cc1)CC2
cytotoxicity at 10 µM (%): -0.00161

###

Assay: Toxicity liver stage against HepG2, at 10uM
Format: cell-based
Set-up: test concentration 10 uM, cell line HepG2-A16-CD81EGFP
Details: human, HepG2-A16-CD81EGFP cells; read-out: INHIBITION

molecule: COc1ccccc1OCc1cc(C(=O)N2CCOCC2CO)n[nH]1 (stereo unspecified)
cytotoxicity at 10 µM (%): -3.94
--
molecule: CC(=O)N1CC[C@H]2CC(=O)N(CCc3c[nH]cn3)CC[C@H]2C1
cytotoxicity at 10 µM (%): -2.77
--
molecule: Cn1cc(CN2CCC3(CCCN(Cc4ccccn4)C3)CC2)cn1
cytotoxicity at 10 µM (%): -6.54
--
molecule: Nc1cc(C(=O)NCC2CCN(Cc3ccncc3F)C2)ccn1 (stereo unspecified)
cytotoxicity at 10 µM (%): -24.2
--
molecule: O=C(CSC1CCCC1)N1CCN(C(=O)C2CC2c2ccccc2)CC1 (stereo unspecified)
cytotoxicity at 10 µM (%): -4.74
--
molecule: CN1CCN(C(=O)CCc2ccccc2)Cc2cccnc21
cytotoxicity at 10 µM (%): -1.04
--
molecule: O=C(O)c1cc(C=Cc2ccccc2)ncn1
cytotoxicity at 10 µM (%): 5.17
--
molecule: Cc1ccn(CC(=O)N2CC[C@@H](c3ccc4ccccc4c3)[C@H](O)C2)n1
cytotoxicity at 10 µM (%): 5.02
--
molecule: O=C(c1cnc(-c2ccccc2)nc1)N1CCOC2(CCCC2)C1
cytotoxicity at 10 µM (%): -1.39
--
molecule: CC(=O)N(Cc1ncc(C)o1)C1CCN(CCc2ccncc2)C1 (stereo unspecified)
cytotoxicity at 10 µM (%): 1.3
--
molecule: C[C@@H]1CN(CC(C)(C)N2CCCCC2)CC[C@@]1(O)C1CC1
cytotoxicity at 10 µM (%): -4.6

###

Test: Toxicity liver stage against HepG2, at 10uM
Format: cell-based
Set-up: test concentration 10 uM, cell line HepG2-A16-CD81EGFP
Details: human, HepG2-A16-CD81EGFP cells; read-out: INHIBITION
Measured cytotoxicity at 10 µM accompanies every entry in the list below.

compound: CCN1CCN(CC(O)c2ccc(Br)cc2)CC1 (stereo unspecified)
output.unit: %
cytotoxicity at 10 µM: -6.95
//
compound: CCCN(C(=O)c1cnc(C)cn1)c1nc2c(s1)CCc1c-2cnn1C
output.unit: %
cytotoxicity at 10 µM: -28
//
compound: CCc1ccccc1OC1CN(C(=O)CN(C)Cc2cccnc2)C1
output.unit: %
cytotoxicity at 10 µM: 1.61
//
compound: CS(=O)(=O)N1CC2(CCN(CC3CCCCC3)CC2)Cc2ccccc21
output.unit: %
cytotoxicity at 10 µM: 6.25
//
compound: O=C(CCc1ccsc1)NCC1CCN(c2ccccc2)C1 (stereo unspecified)
output.unit: %
cytotoxicity at 10 µM: 21.1
//
compound: O=C(CN(Cc1ccccc1)CC1CCOCC1)NC(=O)NC1CC1
output.unit: %
cytotoxicity at 10 µM: -6.49
